Ref: ChEMBL document CHEMBL6114989

Would you mind telling me the reported CLint scaled of each entry?
protocol_text: Metabolic stability in human liver microsome assessed as intrinsic clearance in presence of NADPH measured upto 60 mins by LC-MS/MS analysis
Type: ADME
measurement_context: liver microsomes, read-out: CLH
Numbers only; they are read as mL/min/kg.

Request the reported CLint scaled associated with CN1CC[C@@]23CCCC[C@@H]2[C@@H]1Cc1ccc(N)cc13 23.2

Item: COc1ccc2c(c1)[C@]13CCCC[C@@H]1[C@H](C2)N(C)CC3 20.9

* * *

protocol_text: AUC (0 to infinity) in ICR mouse at 10 mg/kg, ip measured upto 24 hrs by LC-MS/MS analysis
Assay type: ADME, organism-based
measurement_context: in vivo
observed_property: AUC(0-inf) (ng·h/mL)
Numbers only; they are read as ng·h/mL.

Request the reported AUC(0-inf) associated with CC(=O)Nc1ccc2c(c1)[C@]13CCCC[C@@H]1[C@H](C2)N(C)CC3 1080

Item: CN1CC[C@@]23CCCC[C@@H]2[C@@H]1Cc1ccc(N)cc13 2520

Item: COc1ccc2c(c1)[C@]13CCCC[C@@H]1[C@H](C2)N(C)CC3 820
